Each entry below carries its reported % Recovery (96 h).
Experiment: Determination of bio-accumulation: urinary clearance pharmacokinetic study in rats
Assay type: in vivo, male Sprague Dawley rats
Details: 73 micro Moles per kg body weight, oral gavage, recovered in urine up to 96 h
Please state the figure in %; there is no need to write the unit.

// known answers, use as guide
N.O=C(O)C(F)(F)OC(F)(F)C(F)(F)C(F)(F)OC(F)(F)F [Compound 4, CF3—(OCF2)3—OCF2—COONH4] :: 50
N.O=C(O)C(F)(F)C(F)(F)C(F)(F)C(F)(F)C(F)(F)C(F)(F)C(F)(F)F [Compound C-1, C7F15COONH4, reference compound] :: 6
N.O=C(O)C(F)OC(F)(F)C(F)(F)C(F)(F)OC(F)(F)F (centres unmarked) [Compound 12, CF3—O—CF2—CF2—CF2—O—CHF—COONH4] :: 95
N.O=C(O)C(F)(F)C(F)(F)C(F)(F)OC(F)C(F)(F)F (centres unmarked) [Compound 15, CF3—CFH—O—(CF2)3—COONH4] :: 95
N.O=C(O)C(F)(F)OC(F)(F)C(F)(OC(F)(F)C(F)(F)C(F)(F)F)C(F)(F)F (centres unmarked) [Compound C-3, C3F7—O—CF(CF3)—CF2—O—CF2—COONH4, reference compound] :: 5

Now look at this entry.
Exam item: Recorded % Recovery (96 h) for N.O=C(O)C(F)(F)C(F)OC(F)(F)C(F)(F)C(F)(F)OC(F)(F)F (centres unmarked) [Compound 11, CF3—O—CF2—CF2—CF2—O—CHF—CF2—COONH4] , please?
Marked response: 84

###

Each entry below carries its reported T½.
Assay: Determination of bio-accumulation: urinary clearance pharmacokinetic study in rats
Type: in vivo, male Sprague Dawley rats
Details: 73 micro Moles per kg body weight, oral gavage, elimination via urine, exponential least squares curve fitting of concentration in urine
Please state the figure in h; there is no need to write the unit.

// known answers, use as guide
N.O=C(O)C(F)(F)C(F)OC(F)(F)C(F)(F)C(F)(F)F (centres unmarked) [Compound 13, C3F7—O—CFH—CF2COONH4] :: 11
N.O=C(O)C(F)(F)C(F)(F)OC(F)(F)C(F)(F)F [Compound 7, C2F5—O—CF2—CF2—COONH4] :: 10

Exam item: Recorded T½ for N.O=C(O)C(F)(F)OC(F)(F)C(F)(F)C(F)(F)F [Compound 5, C3F7—O—CF2—COONH4] , please?
Marked response: 11

Exam item: Recorded T½ for N.O=C(O)C(F)(F)C(F)(F)OC(F)(F)C(F)(F)C(F)(F)C(F)(F)F [Compound 9, C4F9—O—CF2—CF2—COONH4] , please?
Marked response: 31

Exam item: Recorded T½ for N.O=C(O)C(F)(F)C(F)(F)C(F)(F)OC(F)C(F)(F)F (centres unmarked) [Compound 15, CF3—CFH—O—(CF2)3—COONH4] , please?
Marked response: 8

Exam item: Recorded T½ for N.O=C(O)C(F)(F)OC(F)(F)C(F)(OC(F)(F)C(F)(F)C(F)(F)F)C(F)(F)F (centres unmarked) [Compound C-3, C3F7—O—CF(CF3)—CF2—O—CF2—COONH4, reference compound] , please?
Marked response: 95

Exam item: Recorded T½ for N.O=C(O)C(F)(F)OC(F)(F)OC(F)(F)OC(F)(F)F [Compound 3, CF3—OCF2—OCF2—OCF2—COONH4] , please?
Marked response: 12

###

Assay: Determination of bio-accumulation: urinary clearance pharmacokinetic study in rats
Format: in vivo, male Sprague Dawley rats
Settings: 73 micro Moles per kg body weight, oral gavage, elimination via urine, exponential least squares curve fitting of concentration in urine
Each entry below carries its reported T½.
Please state the figure in h; there is no need to write the unit.

Exam item: Recorded T½ for N.O=C(O)C(F)(F)OC(F)(F)OC(F)(F)F [Compound 2, CF3—OCF2—O—CF2—COONH4] , please?
Marked response: 12

Exam item: Recorded T½ for N.O=C(O)C(F)(F)C(F)(F)OC(F)(F)C(F)(F)C(F)(F)F [Compound 8, C3F7—O—CF2—CF2—COONH4] , please?
Marked response: 12

Exam item: Recorded T½ for N.O=C(O)C(F)(F)C(F)(F)C(F)(F)C(F)(F)C(F)(F)OC(F)C(F)(F)F (stereo not shown) [Compound 14, CF3—CFH—O—(CF2)5—COONH4] , please?
Marked response: 24

Exam item: Recorded T½ for N.O=C(O)C(F)(F)OC(F)(F)C(F)(F)OC(F)(F)C(F)(F)F [Compound 10, C2F5—O—CF2—CF2—O—CF2—COONH4] , please?
Marked response: 10

###

Each entry below carries its reported % Recovery (96 h).
Assay: Determination of bio-accumulation: urinary clearance pharmacokinetic study in rats
Assay type: in vivo, male Sprague Dawley rats
Settings: 73 micro Moles per kg body weight, oral gavage, recovered in urine up to 96 h
Please state the figure in %; there is no need to write the unit.

// known answers, use as guide
N.O=C(O)C(F)(F)C(F)(F)OC(F)(F)C(F)(F)C(F)(F)C(F)(F)F :: 42
N.O=C(O)C(F)(F)OC(F)(F)OC(F)(F)OC(F)(F)F :: 100
N.O=C(O)C(F)(F)OC(F)(F)OC(F)(F)F :: 96
N.O=C(O)C(F)(F)C(F)(F)OC(F)(F)C(F)(F)C(F)(F)F :: 82
N.O=C(O)C(F)(F)OC(F)(F)C(F)(F)C(F)(F)OC(F)(F)F [Compound 1, CF3—O—(CF2)3—O—CF2—COONH4] :: 73
N.O=C(O)C(F)(F)C(F)(F)OC(F)(F)F :: 100
N.O=C(O)C(F)(F)OC(F)(F)C(F)(F)C(F)(F)F :: 97
N.O=C(O)C(F)(F)C(F)OC(F)(F)C(F)(F)C(F)(F)F (centres unmarked) :: 94
N.O=C(O)C(F)(F)C(F)(F)C(F)(F)C(F)(F)C(F)(F)OC(F)C(F)(F)F (centres unmarked) :: 32
N.O=C(O)C(F)(F)OC(F)(F)C(F)(F)OC(F)(F)C(F)(F)F :: 99

Now look at this entry.
Exam item: Recorded % Recovery (96 h) for N.O=C(O)C(F)(F)C(F)(F)OC(F)(F)C(F)(F)F , please?
Marked response: 100

###

Each entry below carries its reported T½.
Assay: Determination of bio-accumulation: urinary clearance pharmacokinetic study in rats
Assay type: in vivo, male Sprague Dawley rats
Conditions: 73 micro Moles per kg body weight, oral gavage, elimination via urine, exponential least squares curve fitting of concentration in urine
Please state the figure in h; there is no need to write the unit.

N.O=C(O)C(F)(F)C(F)OC(F)(F)C(F)(F)C(F)(F)OC(F)(F)F (stereo not drawn) [Compound 11, CF3—O—CF2—CF2—CF2—O—CHF—CF2—COONH4] :: 12
N.O=C(O)C(F)OC(F)(F)C(F)(F)C(F)(F)OC(F)(F)F (stereo not drawn) [Compound 12, CF3—O—CF2—CF2—CF2—O—CHF—COONH4] :: 11

Exam item: Recorded T½ for N.O=C(O)C(F)(F)C(F)(F)OC(F)(F)F [Compound 6, CF3—O—CF2—CF2—COONH4] , please?
Marked response: 11
